Hello, the source for this data is the Human Domainome abundance scans (Beltran et al. 2025), in case you need it.

B1: Neutrophil cytosol factor 2, residues 456 to 514; numbered along this chain, P19878 (parent)
chain: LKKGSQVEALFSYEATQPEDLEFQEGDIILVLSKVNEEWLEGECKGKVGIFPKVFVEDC

Variants of: B1
PROTOCOL DESCRIPTION: abundance fitness (aPCA) (normalised: wild type 0, dead -1); higher = more abundant; growth selection in yeast, the domain comes from the species named
TEST CONDITIONS: Homo sapiens
Kindly return Criterion met if reported abundance fitness is no lower than -0.4; return Criterion not met if it is lower.

> print(dat)
                                  seq.string        group.label
 1  LKKGSQVEALFSYEATHPEDLEFQEGDIILVLSKVNEEWLEGECKGKVGIFPKVFVEDC      Criterion met
 2  LKKGSQVEALFSYEATQPEDLEFPEGDIILVLSKVNEEWLEGECKGKVGIFPKVFVEDC  Criterion not met
 3  LKKGSQVEALFSYEATQPEDLEFQEGDIILVYSKVNEEWLEGECKGKVGIFPKVFVEDC      Criterion met
 4  LKKGSQVEALFSYEATQPEDLEFQEGDIILVLSKVNEIWLEGECKGKVGIFPKVFVEDC      Criterion met
 5  LKKGSQVEALNSYEATQPEDLEFQEGDIILVLSKVNEEWLEGECKGKVGIFPKVFVEDC      Criterion met
 6  LKKGSQVEALFSYEATQLEDLEFQEGDIILVLSKVNEEWLEGECKGKVGIFPKVFVEDC  Criterion not met
 7  LKKGSQVEALFSYEYTQPEDLEFQEGDIILVLSKVNEEWLEGECKGKVGIFPKVFVEDC  Criterion not met
 8  LKKGSQMEALFSYEATQPEDLEFQEGDIILVLSKVNEEWLEGECKGKVGIFPKVFVEDC  Criterion not met
 9  LKKGSQVEALFSYEATQPEDLEFQEGDIILVLSKVNEEWLEGECKGKVGIFPKVFVEDD  Criterion not met
10  LKKGSQVEALFSYEATQPEDLEFQEGHIILVLSKVNEEWLEGECKGKVGIFPKVFVEDC  Criterion not met
11  LKKGSQVEALFSYEATQPEDLEFQEGDIILVLSKVNIEWLEGECKGKVGIFPKVFVEDC  Criterion not met
12  LKKGSQVEALFSYEATQPEDLEFQEGDIILVLSKVNEEWLEGECKGKVGISPKVFVEDC      Criterion met
13  LKKGSQVEALFSYEATQPEDLEFQEGDIILVLSKVNEEWLEGECKGKVDIFPKVFVEDC  Criterion not met
14  LKKGSQVEALFSYEATQPEDLEFQEGDIILWLSKVNEEWLEGECKGKVGIFPKVFVEDC  Criterion not met
15  LKKGSQVEALFSHEATQPEDLEFQEGDIILVLSKVNEEWLEGECKGKVGIFPKVFVEDC      Criterion met
16  FKKGSQVEALFSYEATQPEDLEFQEGDIILVLSKVNEEWLEGECKGKVGIFPKVFVEDC      Criterion met
17  LAKGSQVEALFSYEATQPEDLEFQEGDIILVLSKVNEEWLEGECKGKVGIFPKVFVEDC      Criterion met
18  LKKGSQVEALFSYEATQPEDLHFQEGDIILVLSKVNEEWLEGECKGKVGIFPKVFVEDC      Criterion met
19  LKKGSQVEALFSYEATQPEDLEFQEGDIILVLSKVNEEWLERECKGKVGIFPKVFVEDC  Criterion not met
20  LKKGSQVEALFSYEATQPEDLEFQEGDIILVLSKVNEEWLEGECKGKVFIFPKVFVEDC  Criterion not met
21  LKKGSQVEALTSYEATQPEDLEFQEGDIILVLSKVNEEWLEGECKGKVGIFPKVFVEDC      Criterion met
22  LKKGSQVEALFSYEATQPEDLEFHEGDIILVLSKVNEEWLEGECKGKVGIFPKVFVEDC      Criterion met
23  LKKGSQVEALFSYEATQPEDLEFQEGDWILVLSKVNEEWLEGECKGKVGIFPKVFVEDC      Criterion met
24  LKKGSQGEALFSYEATQPEDLEFQEGDIILVLSKVNEEWLEGECKGKVGIFPKVFVEDC  Criterion not met
25  LKKGSQVEALFSYEATQPEDLEFQEGDIILVLSKVNEEWLEGEEKGKVGIFPKVFVEDC  Criterion not met
26  LKKGSQVEALFSYEATQPEDLEFQEGDIILVLSGVNEEWLEGECKGKVGIFPKVFVEDC  Criterion not met
27  LKKGSQVEALFSYEATQPEDLEFQEGDIILVLSKVNEEWLEGECKGKVGIFPCVFVEDC  Criterion not met
28  LKKGSQVEALFSYEATQPEDLEFQEGDIILVLSKVNEEWLEGECKGDVGIFPKVFVEDC  Criterion not met
29  LKKGSQVEALFSYEATQPEDLEFQEGDIVLVLSKVNEEWLEGECKGKVGIFPKVFVEDC  Criterion not met
30  LKKGSQVEALFSNEATQPEDLEFQEGDIILVLSKVNEEWLEGECKGKVGIFPKVFVEDC  Criterion not met
31  LKKGSQVEALFSYCATQPEDLEFQEGDIILVLSKVNEEWLEGECKGKVGIFPKVFVEDC      Criterion met
32  LKKGSQVEALFSYEATQPEDLEFQEGDIILVLMKVNEEWLEGECKGKVGIFPKVFVEDC  Criterion not met
33  LKKGSQVEALFSYEATQPEDLEFQEGDIILVLSKVNEEWLEGECKGKVGIRPKVFVEDC  Criterion not met
34  LKKGSQPEALFSYEATQPEDLEFQEGDIILVLSKVNEEWLEGECKGKVGIFPKVFVEDC  Criterion not met
35  LKKGSQVEALFSYEATQPEDLEFQEGDIILVLSKVNEEWLEGFCKGKVGIFPKVFVEDC      Criterion met
36  LKKGSQVEALFSYEATCPEDLEFQEGDIILVLSKVNEEWLEGECKGKVGIFPKVFVEDC      Criterion met
37  LKKGSQVEALFSYEATQPEDLEFQEGDIILVLSKVNEEWLEGLCKGKVGIFPKVFVEDC  Criterion not met
38  LKKGSQVEALFEYEATQPEDLEFQEGDIILVLSKVNEEWLEGECKGKVGIFPKVFVEDC  Criterion not met
39  LKKGSQVEALFSYEATQPEDLEFQEGDIILVLSKVNEEWDEGECKGKVGIFPKVFVEDC  Criterion not met
40  LKKGSQVEALFSYEATQPEDLEFQEGDPILVLSKVNEEWLEGECKGKVGIFPKVFVEDC      Criterion met
41  LKKGSQVEALFSYEATQPEDLEFQEGDIILVLSKVNEEWLEGECKGKVGIFPKVFVEQC      Criterion met
42  LVKGSQVEALFSYEATQPEDLEFQEGDIILVLSKVNEEWLEGECKGKVGIFPKVFVEDC      Criterion met
43  LKKGSQVEALFSYEATQPEDLEFQEGDIILVLSKVNEEWLEGECKGKVGIFPKVMVEDC      Criterion met
